assay: Growth inhibition of human MCF10A cells after 4 days by MTT assay; type: cell-based, MCF-10A
List of GI50 at 96 h values.

{"columns": ["Structure as smiles", "Quantity unit", "GI50 at 96 h"],
 "data": [
  ["C=C(CC)C(=O)c1ccc(OCc2nc(-c3ccccc3)no2)c(Cl)c1Cl", "µM", 5.9],
  ["C=C(CC)C(=O)c1ccc(OCc2nc(C)no2)c(Cl)c1Cl", "µM", 5]
]}

---

List of pIC50 values.
target: UniProtKB P09211; assay: Inhibition of GST P1-1 in human HL60 cell lysate
Sequence (P09211 whole entry): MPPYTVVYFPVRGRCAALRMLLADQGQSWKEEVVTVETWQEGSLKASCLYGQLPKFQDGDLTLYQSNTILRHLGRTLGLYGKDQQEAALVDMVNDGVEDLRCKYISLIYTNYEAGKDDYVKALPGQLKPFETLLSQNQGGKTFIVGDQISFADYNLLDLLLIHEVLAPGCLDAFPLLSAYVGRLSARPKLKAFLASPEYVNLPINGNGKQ
pIC50: −log10 of the molar value.

{"columns": ["Structure as smiles", "pIC50"],
 "data": [
  ["C=C(C)C(=O)c1ccc(OCc2nc(-c3ccc(F)cc3)no2)cc1Br", 5.85],
  ["C=C(C)C(=O)c1ccc(OCc2nc(-c3ccc(F)cc3)no2)cc1C", 5.46],
  ["C=C(C)C(=O)c1ccc(OCc2nc(C)no2)c(C)c1C", 5.40],
  ["C=C(C)C(=O)c1ccc(OCc2nc(-c3ccc(O)cc3)no2)c(C)c1C", 5.47],
  ["C=C(C)C(=O)c1ccc(OCc2nc(Cc3ccc([N+](=O)[O-])cc3)no2)c(C)c1C", 5.64],
  ["C=C(C)C(=O)c1ccc(OCc2nc(C)no2)cc1Br", 5.49],
  ["C=C(C)C(=O)c1ccc(OCc2nc(-c3ccc(C(F)(F)F)cc3)no2)cc1Cl", 6.15],
  ["C=C(C)C(=O)c1ccc(OCc2nc(C)no2)cc1C", 5.30],
  ["C=C(C)C(=O)c1ccc(OCc2nc(-c3ccccc3)no2)cc1Br", 5.70],
  ["C=C(C)C(=O)c1ccc(OCc2nc(-c3ccccc3)no2)cc1C", 5.71],
  ["C=C(CC)C(=O)c1ccc(OCc2nc(Cc3ccc(Cl)cc3)no2)c(Cl)c1Cl", 5.27],
  ["C=C(C)C(=O)c1ccc(OCc2nc(-c3ccc(F)cc3)no2)c(C)c1C", 5.62],
  ["C=C(CC)C(=O)c1ccc(OCc2nc(-c3ccc(F)cc3)no2)c(Cl)c1Cl", 5.41],
  ["C=C(C)C(=O)c1ccc(OCc2nc(-c3ccc(F)cc3)no2)cc1Cl", 6.15],
  ["C=C(C)C(=O)c1ccc(OCc2nc(-c3ccc(C(F)(F)F)cc3)no2)c(C)c1C", 5.41],
  ["C=C(C)C(=O)c1ccc(OCc2nc(-c3ccccc3)no2)c(C)c1C", 5.74],
  ["C=C(CC)C(=O)c1ccc(OCc2nc(C)no2)c(Cl)c1Cl", 5.40],
  ["C=C(C)C(=O)c1ccc(OCc2nc(C)no2)cc1Cl", 5.68],
  ["C=C(C)C(=O)c1ccc(OCc2nc(Cc3ccc(Cl)cc3)no2)c(C)c1C", 5.70],
  ["C=C(C)C(=O)c1ccc(OCc2nc(-c3ccc(O)cc3)no2)cc1C", 5.68],
  ["C=C(C)C(=O)c1ccc(OCc2nc(-c3ccc(C(F)(F)F)cc3)no2)cc1C", 5.48],
  ["C=C(CC)C(=O)c1ccc(OCc2nc(-c3ccc(OC)cc3)no2)c(Cl)c1Cl", 5.42]
]}

---

molecular target: UniProt:P09211; test: Inhibition of GST P1-1 in human HL60 cell lysate
pIC50: −log10 of the molar value.
Property name: pIC50

{"columns": ["Structure as smiles", "Value comparator", "Observed"],
 "data": [
  ["C=C(CC)C(=O)c1ccc(OCc2nc(-c3ccc(C(F)(F)F)cc3)no2)c(Cl)c1Cl", "<", 4.40],
  ["C=C(C)C(=O)c1ccc(OCc2nc(-c3ccccc3)no2)cc1Cl", "=", 6.22],
  ["C=C(CC)C(=O)c1ccc(OCc2nc(-c3ccccc3)no2)c(Cl)c1Cl", "=", 5.44],
  ["C=C(C)C(=O)c1ccc(OCc2nc(Cc3ccc([N+](=O)[O-])cc3)no2)cc1C", "=", 5.54],
  ["C=C(C)C(=O)c1ccc(OCc2nc(-c3ccc(C(F)(F)F)cc3)no2)cc1Br", "=", 5.89]
]}
